system_name: Lck (Homo sapiens)
Construct: Kinases are expressed as either kinase domains or full length constructs; made in house
Sequence (P06239 whole entry, species assumed, the tested form may be a part): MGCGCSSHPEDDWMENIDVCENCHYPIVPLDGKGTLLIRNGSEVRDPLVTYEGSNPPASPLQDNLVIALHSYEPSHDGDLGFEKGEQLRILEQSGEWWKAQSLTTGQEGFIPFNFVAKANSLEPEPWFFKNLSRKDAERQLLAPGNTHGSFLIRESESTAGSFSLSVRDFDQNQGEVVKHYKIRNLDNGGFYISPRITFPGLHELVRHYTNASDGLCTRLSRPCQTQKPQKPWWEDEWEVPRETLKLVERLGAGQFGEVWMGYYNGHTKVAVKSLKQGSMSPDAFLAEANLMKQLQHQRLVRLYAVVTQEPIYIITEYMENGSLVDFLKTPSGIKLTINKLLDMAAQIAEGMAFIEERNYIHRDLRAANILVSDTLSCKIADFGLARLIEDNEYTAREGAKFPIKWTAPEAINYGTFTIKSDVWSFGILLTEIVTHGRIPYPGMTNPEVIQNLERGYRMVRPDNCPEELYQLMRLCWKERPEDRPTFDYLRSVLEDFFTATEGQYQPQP
test_details: Kinase inhibition assay (33P transfer), Lck
Format: biochemical
stated_conditions: Table 3; read-out: Lck-1
property_label: IC50

Answered examples (5):
[
  {
    "compound": "CC(=O)NS(=O)(=O)c1ccc(Nc2ncnc(-n3c(N)nc4ccccc43)n2)cc1 [Compound 440]",
    "system_name": "Lck (Homo sapiens)",
    "IC50": "0.942 to 5.65 µM"
  },
  {
    "compound": "Nc1ncnc(Nc2cccc(Cl)c2)n1 [Compound 1019]",
    "system_name": "Lck (Homo sapiens)",
    "IC50": "> 20.3 µM"
  },
  {
    "compound": "COc1cc(Nc2ncnc(Nc3cc(C)ccc3C)n2)cc(OC)c1OC [Compound 932]",
    "system_name": "Lck (Homo sapiens)",
    "IC50": "1.05 to 6.29 µM"
  },
  {
    "compound": "FC(F)(F)c1cccc(Nc2ncnc(-n3cccc3)n2)c1 [Compound 277]",
    "system_name": "Lck (Homo sapiens)",
    "IC50": "> 14.7 µM"
  },
  {
    "compound": "COc1cc(Nc2ncnc(N(CC(=O)OC(C)(C)C)c3ccc4c(c3)OCO4)n2)cc(OC)c1OC [Compound 309]",
    "system_name": "Lck (Homo sapiens)",
    "IC50": "6.84 to 8.8 µM"
  }
]

Ask: # get_value(readout='IC50', item= CCOc1ccc(Nc2ncnc(-n3c(N)nc4ccccc43)n2)cc1OCC [Compound 299] )
Result: 8.94 to 11.5 µM
